molecular target: HER2 (Homo sapiens); construct: a human breast tumor cell line which expresses high levels of HER2 kinase; host or cells: BT-474 human breast tumor cells; assay: HER2-ELISA, HER2-BT474 assay measuring whole cell HER2 activity; format: cell-based
Sequence (P04626 23-1255): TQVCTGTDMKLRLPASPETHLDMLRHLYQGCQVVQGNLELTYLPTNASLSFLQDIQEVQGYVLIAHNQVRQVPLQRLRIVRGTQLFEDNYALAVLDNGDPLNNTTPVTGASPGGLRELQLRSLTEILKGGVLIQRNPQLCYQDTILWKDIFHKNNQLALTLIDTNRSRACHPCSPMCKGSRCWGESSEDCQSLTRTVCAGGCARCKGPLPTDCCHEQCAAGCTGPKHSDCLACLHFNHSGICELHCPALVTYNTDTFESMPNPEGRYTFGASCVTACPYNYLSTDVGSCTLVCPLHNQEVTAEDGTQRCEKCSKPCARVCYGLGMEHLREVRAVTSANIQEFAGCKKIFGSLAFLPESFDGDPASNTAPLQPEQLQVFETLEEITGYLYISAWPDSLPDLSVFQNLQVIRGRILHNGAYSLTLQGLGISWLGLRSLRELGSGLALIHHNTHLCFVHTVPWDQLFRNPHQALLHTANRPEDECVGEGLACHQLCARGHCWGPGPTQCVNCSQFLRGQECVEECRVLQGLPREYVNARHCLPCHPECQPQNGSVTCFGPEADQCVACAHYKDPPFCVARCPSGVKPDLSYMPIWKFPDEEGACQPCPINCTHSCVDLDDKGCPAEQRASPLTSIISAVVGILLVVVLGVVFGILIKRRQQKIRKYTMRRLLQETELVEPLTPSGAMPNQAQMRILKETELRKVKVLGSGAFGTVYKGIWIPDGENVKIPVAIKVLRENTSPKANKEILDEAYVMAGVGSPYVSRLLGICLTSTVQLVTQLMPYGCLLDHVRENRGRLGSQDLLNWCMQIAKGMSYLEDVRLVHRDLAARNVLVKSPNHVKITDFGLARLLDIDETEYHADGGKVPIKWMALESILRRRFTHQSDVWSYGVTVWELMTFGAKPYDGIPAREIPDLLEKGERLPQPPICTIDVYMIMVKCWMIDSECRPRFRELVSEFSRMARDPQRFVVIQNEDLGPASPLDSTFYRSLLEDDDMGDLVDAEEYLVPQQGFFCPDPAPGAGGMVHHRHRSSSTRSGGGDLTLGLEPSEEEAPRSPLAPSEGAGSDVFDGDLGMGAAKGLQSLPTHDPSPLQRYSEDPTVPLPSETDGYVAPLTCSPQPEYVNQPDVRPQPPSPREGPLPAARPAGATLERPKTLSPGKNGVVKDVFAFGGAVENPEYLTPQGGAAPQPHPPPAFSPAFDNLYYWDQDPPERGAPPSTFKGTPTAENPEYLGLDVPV
PROPERTY: IC50 (µM)
The figure you give is taken to be in µM; do not add the unit.

IC50 in this record for "O=C(Nc1ccc(SC(F)(F)F)cc1)Nc1ccc(Oc2ccc(Cl)cc2Cl)nc1" : 9.9

###

system: HUV-EC-C cells (human umbilical vein endothelial cells); assay: HUV-EC-C Flk-1 assay (3H-thymidine incorporation); format: cell-based; details: Endothelial cell, VEGF stimulated, read-out: GROWTH DATA: HUV-EC-C/VEGF
PROPERTY: pIC50
On this scale, pIC50 is minus log10 of a concentration expressed in M (mol/L).

pIC50 in this record for CC(C)S(=O)(=O)c1csc(NC(=O)Nc2ccc(C(C)(C)C)cc2)c1Cl [Example Z1] : 5.54
